experimental.protocol: Plasma chemistry markers after subcutaneous administration in CD-1 mice (Example 6)
Type: in vivo
stated.conditions: CD-1 mice plasma at day 46; 50 mg/kg subcutaneously twice a week for 7 weeks
Strand notation (5' to 3'): a small letter for the sugar, then the base; units joined by * are phosphorothioate-linked, units joined directly phosphodiester-linked; [ ] holds rarer units or linkages, { } end groups; capitals alone tell only the bases. k = constrained ethyl (cEt); [5mC] = 5-methylcytosine; d = 2'-deoxy (DNA)
observed.property: BUN (mg/dL)

1. 829994 (GGAGGCAGGGCCGCGA; 3-10-3 cEt gapmer, further chemistry not given here) [compound 829994]; 25
2. 830025 (antisense TTTGTAAATCGAAAGC; 3-10-3 cEt gapmer, further chemistry not given here) [compound 830025]; 25
3. 830027 (antisense kA*kA*k[5mC]*d[5mC]*dA*dT*dT*dT*dA*dT*d[5mC]*dT*dG*kG*kT*kG) [compound 830027]; 23

# credit: patent US10517889B2
